Origin of the recorded values: patent US20180141988A1

- targetDesc: T1, Human GPC3 (2119-GP; R&D systems), biotinylated (human, UniProt P51654 25-559, biotinylated using standard NHS chemistry)
- T1 construct: Bought protein; also called human Glypican-3
- T1 sequence (P51654 25-559 limits assumed): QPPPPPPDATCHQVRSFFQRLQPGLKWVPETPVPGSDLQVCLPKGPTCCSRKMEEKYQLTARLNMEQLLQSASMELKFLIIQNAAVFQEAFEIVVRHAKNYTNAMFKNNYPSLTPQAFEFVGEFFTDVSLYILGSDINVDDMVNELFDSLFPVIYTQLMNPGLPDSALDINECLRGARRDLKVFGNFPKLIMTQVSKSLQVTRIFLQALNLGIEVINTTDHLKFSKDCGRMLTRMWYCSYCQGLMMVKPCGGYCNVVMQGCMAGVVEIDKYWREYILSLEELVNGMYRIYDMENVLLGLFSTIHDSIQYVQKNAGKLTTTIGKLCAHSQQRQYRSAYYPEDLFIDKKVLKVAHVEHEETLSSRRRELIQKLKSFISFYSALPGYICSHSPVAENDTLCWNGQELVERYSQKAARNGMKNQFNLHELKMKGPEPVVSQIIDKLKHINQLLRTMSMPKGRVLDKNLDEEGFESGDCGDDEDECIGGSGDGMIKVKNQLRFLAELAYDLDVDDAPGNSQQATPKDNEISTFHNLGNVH
- assayExplanation: SPR (Biacore T200), biotinylated GPC3 captured on chip, mutein in flow
endpoint: kon (M⁻¹ s⁻¹)
# value in M⁻¹ s⁻¹; strip the unit string

[[record]]
binder = "lipocalin mutein of SEQ ID NO: 12 (designed binder, hNGAL (Lcn2) mutein; also called optimized GPC3 specific lipocalin mutein) QDSTSDLIPAPPLSKVPLQQNFQDNQFQGKWYVVGRAGNVALREDKDPPKMRATIYELKEDKSYDVTNVVFAGKKCKYSIGTFVPGSQPGEFTLGRIKSPPGNTANLVRVVSTNYNQHAMVFFKEVYQNREIFFIILYGRTKELTSELKENFIRFSKSLGLPENHIVFPVPIDQCIDGSAWSHPQFEK"
endpoint = "kon"
reading = "6.5e+06"

[[record]]
binder = "lipocalin mutein of SEQ ID NO: 6 (designed binder, hNGAL (Lcn2) mutein; also called optimized GPC3 specific lipocalin mutein) QDSTSDLIPAPPLSKVPLQQNFQDNQFQGKWYVVGVAGNVRLREDKDPPKMRATIYELKEDKSYDVTGVSFRGKKCHYKIGTFVPGSQPGEFTLGDIKSGPGETSNLVRVVSTNYNQHAMVFFKEVRQNREWFFITLYGRTKELTSELKENFIRFSKSLGLPENHIVFPVPIDQCIDGSAWSHPQFEK"
endpoint = "kon"
reading = "1.8e+06"

[[record]]
binder = "lipocalin mutein of SEQ ID NO: 4 (designed binder, hNGAL (Lcn2) mutein; also called non-optimized GPC3-specific Lcn2 mutein; mother clone) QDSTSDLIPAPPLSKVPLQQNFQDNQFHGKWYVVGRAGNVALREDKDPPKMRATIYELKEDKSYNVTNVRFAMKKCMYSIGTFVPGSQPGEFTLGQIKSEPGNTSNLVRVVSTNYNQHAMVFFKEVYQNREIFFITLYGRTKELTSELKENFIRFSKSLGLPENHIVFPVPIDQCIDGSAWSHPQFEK"
endpoint = "kon"
reading = "2.5e+06"

[[record]]
binder = "lipocalin mutein of SEQ ID NO: 10 (designed binder, hNGAL (Lcn2) mutein; also called optimized GPC3 specific lipocalin mutein) QDSTSDLIPAPPLSKVPLQQNFQDNQFQGKWYVVGRAGNGALREDKDPPKMWATIYELKEDKSYDVTNVRFARKKCVYSIGTFVPGSQPGEFTLGPIKSEPGNTASLVRVVSTNYNQHAMVFFKEVYQNREIFFIILYGRTKELTSELKENFIRFSKSLGLPENHIVFPVPIDQCIDGSAWSHPQFEK"
endpoint = "kon"
reading = "1.8e+06"

[[record]]
binder = "lipocalin mutein of SEQ ID NO: 9 (designed binder, hNGAL (Lcn2) mutein; also called optimized GPC3 specific lipocalin mutein) QDSTSDLIPAPPLSKVPLQQNFQDNQFQGKWYVVGRAGNVGLREDKDPPKMWATIYELKEDKSYDVTNVRFARKKCTYSIGTFVPGSQPGEFTLGQIKSEPGGTANLVRVVSTNYNQHAMVFFKEVYQNREIFFIILYGRTKELTSELKENFIRFSKSLGLPENHIVFPVPIDQCIDGSAWSHPQFEK"
endpoint = "kon"
reading = "1.8e+06"


Below: the item to evaluate.
So, lipocalin mutein of SEQ ID NO: 14 (designed binder, hNGAL (Lcn2) mutein; also called optimized GPC3 specific lipocalin mutein) QDSTSDLIPAPPLSKVPLQQNFQDNQFQGKWYVVGRAGNVGLREDKDPPKMWATIYELKEDKSYDVTNVRFAGKKVKYTIGTFVPGSQPGEFTLGQIKSEPGNTATLVRVVSTNYNQHAMVFFKEVYQNREIFFITLYGRTKELTSELKENFIRFSKSLGLPENHIVFPVPIDQAIDGSAWSHPQFEK ? Its kon was 2.4e+06
